- Target or system: olfactory receptor OR5K1 (Homo sapiens)
- Construct: expressed in transfected cells; host or cells: HEK293
- Sequence (Q8NHB7 whole entry): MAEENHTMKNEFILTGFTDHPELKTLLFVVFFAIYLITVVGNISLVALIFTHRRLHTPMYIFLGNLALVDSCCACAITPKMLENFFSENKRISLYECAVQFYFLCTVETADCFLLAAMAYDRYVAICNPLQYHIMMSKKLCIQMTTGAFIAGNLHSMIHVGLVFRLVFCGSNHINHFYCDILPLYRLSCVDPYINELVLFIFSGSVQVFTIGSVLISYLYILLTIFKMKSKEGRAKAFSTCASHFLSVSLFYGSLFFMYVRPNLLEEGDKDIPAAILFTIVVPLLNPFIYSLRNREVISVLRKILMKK
- Method: Antagonist activity against OR5K1 response to 2,6-dimethylpyrazine (luciferase assay, HEK293 cells)
- Assay type: cell-based
- Assay conditions: 2,6-dimethylpyrazine 1 mM and test material 300 μM; HEK293 cells expressing OR5K1
Readout: Antagonist activity on the response of OR5K1 to pyrazine derivatives

Observe how each entry below is paired with its result.
* CCC=C(C)C(O)CCCCC (stereo not drawn) | antagonist activity
* CCC(=CCC1CC=C(C)C1(C)C)CO (stereo not drawn) | antagonist activity
* CCCCCC1C(=O)CCC1CC(=O)OC (stereo not drawn) [Methyl dihydrojasmonate, methyl dihydrojasmonate] | no antagonist activity
* CC(C=O)Cc1ccc(C(C)C)cc1 (stereo not drawn) | antagonist activity

Per the reported olfactory receptor OR5K1 (Homo sapiens) data, CC(=O)CCc1ccc(O)cc1 [Raspberry ketone, 4-(p-hydroxyphenyl)-2-butanone] has Antagonist activity on the response of OR5K1 to pyrazine derivatives of no antagonist activity

Record for CC(C)CC1CC(C)(O)CCO1 (stereo not drawn) under target or system olfactory receptor OR5K1 (Homo sapiens): Antagonist activity on the response of OR5K1 to pyrazine derivatives reported as no antagonist activity

====

- Target or system: olfactory receptor OR5K1 (Homo sapiens)
- Construct: expressed in transfected cells; host or cells: HEK293
- Method: Antagonist activity against OR5K1 response to 2,6-dimethylpyrazine (luciferase assay, HEK293 cells)
- Type: cell-based
- Assay conditions: 2,6-dimethylpyrazine 1 mM and test material 300 μM (cytotoxic perfumes: 333 μM and 100 JAM); HEK293 cells expressing OR5K1
Readout: Receptor response-inhibiting rate

- CCC(=CCC1CC=C(C)C1(C)C)CO (stereo not drawn): 75% or more
- CC(=O)CCc1ccc(O)cc1 [Raspberry ketone, 4-(p-hydroxyphenyl)-2-butanone]: Not inhibited
- CC(C)CC1CC(C)(O)CCO1 (stereo not drawn): Not inhibited
- CC(C=O)Cc1ccc(C(C)C)cc1 (stereo not drawn): 75% or more
- CCC=C(C)C(O)CCCCC (stereo not drawn): 75% or more

Next, consider the following compound.
// Receptor response-inhibiting rate (olfactory receptor OR5K1 (Homo sapiens)) for CCCCCC1C(=O)CCC1CC(=O)OC (stereo not drawn) [Methyl dihydrojasmonate, methyl dihydrojasmonate] = Not inhibited
